- SYSTEM: c-Met (Homo sapiens, UniProt P08581)
- Construct: Kinases are expressed as either kinase domains or full length constructs; made in house
- Sequence (P08581 25-1390): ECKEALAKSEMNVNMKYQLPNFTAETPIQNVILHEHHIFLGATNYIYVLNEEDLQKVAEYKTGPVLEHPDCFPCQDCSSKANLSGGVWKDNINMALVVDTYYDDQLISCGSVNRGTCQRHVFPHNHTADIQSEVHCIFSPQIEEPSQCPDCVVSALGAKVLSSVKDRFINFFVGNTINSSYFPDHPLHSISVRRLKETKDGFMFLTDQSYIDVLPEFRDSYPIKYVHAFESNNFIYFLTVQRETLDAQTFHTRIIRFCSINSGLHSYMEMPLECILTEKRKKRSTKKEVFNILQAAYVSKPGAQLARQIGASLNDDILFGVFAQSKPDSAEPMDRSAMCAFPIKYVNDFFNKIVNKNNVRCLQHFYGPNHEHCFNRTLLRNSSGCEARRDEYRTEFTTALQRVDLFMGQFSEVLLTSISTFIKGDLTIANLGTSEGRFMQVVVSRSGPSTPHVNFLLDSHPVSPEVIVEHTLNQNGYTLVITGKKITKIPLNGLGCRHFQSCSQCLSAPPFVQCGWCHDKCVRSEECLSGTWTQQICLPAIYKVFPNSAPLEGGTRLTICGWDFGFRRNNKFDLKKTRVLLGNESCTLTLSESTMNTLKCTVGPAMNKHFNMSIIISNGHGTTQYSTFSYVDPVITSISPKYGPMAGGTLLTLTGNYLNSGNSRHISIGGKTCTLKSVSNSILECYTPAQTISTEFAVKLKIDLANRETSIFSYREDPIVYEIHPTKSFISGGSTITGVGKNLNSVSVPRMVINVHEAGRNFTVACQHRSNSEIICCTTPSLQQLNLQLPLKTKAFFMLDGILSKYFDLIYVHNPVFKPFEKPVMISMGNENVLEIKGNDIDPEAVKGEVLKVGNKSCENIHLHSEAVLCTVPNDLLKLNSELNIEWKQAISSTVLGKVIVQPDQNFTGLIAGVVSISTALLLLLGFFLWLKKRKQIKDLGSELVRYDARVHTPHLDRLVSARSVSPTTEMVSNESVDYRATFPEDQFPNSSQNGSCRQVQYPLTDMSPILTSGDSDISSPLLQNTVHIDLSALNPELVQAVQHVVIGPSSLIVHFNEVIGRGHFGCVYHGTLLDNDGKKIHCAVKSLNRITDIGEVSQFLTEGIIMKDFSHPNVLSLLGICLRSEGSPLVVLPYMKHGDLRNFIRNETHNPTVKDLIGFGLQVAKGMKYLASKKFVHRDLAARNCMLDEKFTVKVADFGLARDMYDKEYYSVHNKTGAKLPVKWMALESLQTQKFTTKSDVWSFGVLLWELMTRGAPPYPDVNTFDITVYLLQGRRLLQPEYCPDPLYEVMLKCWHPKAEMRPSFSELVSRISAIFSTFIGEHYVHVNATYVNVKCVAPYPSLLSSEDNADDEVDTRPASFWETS
- TEST_PROTOCOL: Kinase inhibition assay (33P transfer), c-Met
- Format: biochemical
- CONDITION: Table 2, class symbols A-E; read-out: Met-1
pIC50: −log10 of the molar value.
Consider the following compounds; for each one, report its pIC50.

stdin: Consider the compound COc1cc(Nc2ncnc(-c3cccnc3Nc3cccc(C(C)=O)c3)n2)cc(OC)c1OC and give its measured pIC50.
stdout: 5.13 to 5.29

stdin: Consider the compound c1ccc(CNc2ncnc(Nc3cc(-c4ccco4)n[nH]3)n2)nc1 and give its measured pIC50.
stdout: < 4.87

stdin: Consider the compound CN(c1cccc(Cl)c1)c1ncnc(Nc2cccc(Cn3ccnn3)c2)n1 and give its measured pIC50.
stdout: > 5.99

stdin: Consider the compound COc1cc(Nc2ncnc(N(C)c3cccc(Cl)c3)n2)cc2ccccc12 and give its measured pIC50.
stdout: < 4.94

stdin: Consider the compound O=C(O)Cc1cccc(Nc2ncnc(Nc3ccc(Cl)cc3F)n2)c1 and give its measured pIC50.
stdout: 4.92 to 5.03

stdin: Consider the compound COc1ccc(Nc2ncnc(NCc3cccc(Cl)c3)n2)cc1OC and give its measured pIC50.
stdout: < 4.92

stdin: Consider the compound CN(c1cccc(Cl)c1)c1ncnc(Nc2ccc(OC(F)(F)F)cc2)n1 and give its measured pIC50.
stdout: < 4.94

stdin: Consider the compound COC(=O)c1ccc(-c2cc(Nc3ncnc(NCCN4CCNC4=O)n3)[nH]n2)cc1 and give its measured pIC50.
stdout: < 4.97

stdin: Consider the compound COc1cc(Nc2ncnc(-c3cccnc3Nc3ccc4c(c3)CCC4)n2)cc(OC)c1OC and give its measured pIC50.
stdout: 5.29 to 6.07

stdin: Consider the compound COc1cc(Nc2ncnc(-c3cccnc3NCC(C)c3ccccc3)n2)cc(OC)c1OC (centres unmarked) and give its measured pIC50.
stdout: < 5.02

stdin: Consider the compound COC(=O)c1ccc(-c2cc(Nc3ncnc(Nc4cccc(Cc5nnn[nH]5)c4)n3)[nH]n2)cc1 and give its measured pIC50.
stdout: > 6.07

stdin: Consider the compound COc1ccc(Nc2ncnc(N(C)c3ccc(C(=O)O)cc3)n2)cc1OC and give its measured pIC50.
stdout: 5.20 to 5.98

stdin: Consider the compound O=C(O)CCNC(=O)c1ccc(Nc2ncnc(Nc3cc(-c4ccco4)[nH]n3)n2)cc1 and give its measured pIC50.
stdout: 5.26 to 6.04

stdin: Consider the compound c1cc(Cn2ccnn2)cc(Nc2ncnc(-n3c(Nc4ccc5[nH]ccc5c4)nc4ccccc43)n2)c1 and give its measured pIC50.
stdout: 5.32 to 6.10

stdin: Consider the compound CN(c1ccc2c(cnn2Cc2ccccc2)c1)c1ncnc(Nc2cccc(Cc3nnn[nH]3)c2)n1 and give its measured pIC50.
stdout: > 6.09

stdin: Consider the compound COc1ccc(Nc2ncnc(Nc3ccc4c(c3)CCC4)n2)cc1OC and give its measured pIC50.
stdout: 5.18 to 5.96

stdin: Consider the compound FC(F)(F)Oc1cccc(Nc2ncnc(Nc3ccc4c(cnn4Cc4ccccc4)c3)n2)c1 and give its measured pIC50.
stdout: 5.13 to 5.30
